B1: tRNA (parent)
chain: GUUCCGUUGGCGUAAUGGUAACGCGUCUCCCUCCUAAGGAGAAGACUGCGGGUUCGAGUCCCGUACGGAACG

Variants of: B1
TEST METHOD NOTES: yeast fitness relative to wild type (ratio to wild type); higher = fitter; tRNA-Arg(CCU), competitive growth, 37 C, YPD
This sample holds only a part of the variants without activity.
MEASUREMENT KIND: yeast fitness
The response must contain the number and no unit.

See these solved cases before continuing.
> print(dat)
           mutant.name  measurement.kind  assay.result
1             U8A C31A     yeast fitness         0.605
2            C22A C66G     yeast fitness         0.714
3  A15U C34G G51A C66U     yeast fitness         0.584

Which yeast fitness is listed for C5G G12C C49U A65C ?
0.726

Repeat for the following variant: C11G C55G G63C G67C
0.557

And for U64A A65U A70U ?
0.601

Try this variant too: G63A A65C
0.942

Now this one: G6C G68C
0.874

Can you check C27U C49A next?
0.785

Could you do the same for A14G C31G , please?
0.945

Field entry: A15U C29A C49G
0.634
